Entries annotated with measured pIC50
- Tested on: A549
- test description: Antiproliferative activity against human A549 cells assessed as cell growth inhibition after 72 hrs by MTT assay
- Type: functional, cell-based
- stated conditions: A549, 72 h
Bear in mind: pIC50 is minus log10 of a mol/L concentration; give just that figure.

compound | observable | recorded result
CC(C)(C)n1cc2c(n1)C(=O)CC1(CCN(C(=O)c3cc(-c4ccc(F)cc4)nc4ccccc34)CC1)O2 | pIC50 | 5.24

Inquiry: Form field: reported pIC50 of "Cc1ccc(-c2cc(C(=O)N3CCC4(CC3)CC(=O)c3nn(C(C)(C)C)cc3O4)c3ccccc3n2)cc1"
Reply text: 5.28

Inquiry: Form field: reported pIC50 of COc1cccc2c1C(=O)c1c(O)c3c(c(O)c1C2=O)C[C@@](O)(C(=O)CO)C[C@@H]3O[C@H]1C[C@H](N)[C@H](O)[C@H](C)O1 [DOXORUBICIN]
Reply text: 6.23

Inquiry: Form field: reported pIC50 of "CC(C)(C)n1cc2c(n1)C(=O)CC1(CCN(C(=O)c3cc(-c4ccccc4)nc4ccccc34)CC1)O2"
Reply text: 5.71

Inquiry: Form field: reported pIC50 of "CC(C)(C)n1cc2c(n1)C(=O)CC1(CCN(C(=O)c3cc(-c4ccc(Cl)cc4)nc4ccccc34)CC1)O2"
Reply text: 5.63

Inquiry: Form field: reported pIC50 of "CC(C)(C)n1cc2c(n1)C(=O)CC1(CCN(C(=O)c3cc(-c4ccc(N)cc4)nc4ccccc34)CC1)O2"
Reply text: 6.01

Inquiry: Form field: reported pIC50 of "Cc1ccccc1-c1cc(C(=O)N2CCC3(CC2)CC(=O)c2nn(C(C)(C)C)cc2O3)c2ccccc2n1"
Reply text: 5.73

Inquiry: Form field: reported pIC50 of "CC(C)(C)n1cc2c(n1)C(=O)CC1(CCN(C(=O)c3cc(-c4ccc(Br)cc4)nc4ccccc34)CC1)O2"
Reply text: 5.03

Inquiry: Form field: reported pIC50 of "CC(C)(C)n1cc2c(n1)C(=O)CC1(CCN(C(=O)c3cc(-c4ccccc4Cl)nc4ccccc34)CC1)O2"
Reply text: 5.66

Inquiry: Form field: reported pIC50 of "COc1ccc(-c2cc(C(=O)N3CCC4(CC3)CC(=O)c3nn(C(C)(C)C)cc3O4)c3ccccc3n2)cc1"
Reply text: 5.43

Inquiry: Form field: reported pIC50 of "CC(C)(C)n1cc2c(n1)C(=O)CC1(CCN(C(=O)c3ccc4[nH]ncc4c3)CC1)O2"
Reply text: 5.45

Inquiry: Form field: reported pIC50 of "CC(C)(C)n1cc2c(n1)C(=O)CC1(CCN(C(=O)c3cc(-c4ccccn4)nc4ccccc34)CC1)O2"
Reply text: 5.11

Inquiry: Form field: reported pIC50 of "CN(C)c1ccc(-c2cc(C(=O)N3CCC4(CC3)CC(=O)c3nn(C(C)(C)C)cc3O4)c3ccccc3n2)cc1"
Reply text: 5.94

Inquiry: Form field: reported pIC50 of "COc1ccc(-c2cc(C(=O)N3CCC4(CC3)CC(=O)c3nn(C(C)(C)C)cc3O4)c3ccccc3n2)cc1OC"
Reply text: 5.69

Inquiry: Form field: reported pIC50 of "CC(C)(C)n1cc2c(n1)C(=O)CC1(CCN(C(=O)c3cc(Cl)nc4ccccc34)CC1)O2"
Reply text: 5.14

Inquiry: Form field: reported pIC50 of "CC(C)(C)n1cc2c(n1)C(=O)CC1(CCN(C(=O)c3cc(-c4ccncc4)nc4ccccc34)CC1)O2"
Reply text: 6.26

Hey, just so you know, these numbers are from ChEMBL document CHEMBL4732112.
